B1: TPR 5TU (parent)
chain: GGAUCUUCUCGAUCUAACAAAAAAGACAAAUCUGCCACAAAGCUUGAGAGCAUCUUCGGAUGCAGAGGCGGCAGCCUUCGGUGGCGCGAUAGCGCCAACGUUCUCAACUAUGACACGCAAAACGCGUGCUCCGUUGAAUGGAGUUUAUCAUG

variants of: B1; test: polymerase ribozyme fitness, log enrichment relative to wild type (log ratio); higher = more active; in vitro selection for triplet polymerase activity
Variants at the floor of the assay were thinned out.
polymerase ribozyme fitness (log ratio) below -3 gives 0.0; polymerase ribozyme fitness (log ratio) at or above it gives 1.0.

1) C93U C114U    1.0
2) A17U A40U C123U    1.0
3) A3G C38G G42U G59C G70C U78C C87A    0.0
4) C18G G59U G84U    1.0
5) A28U G67A G74A G86C C108A C132A    0.0
6) U6G C14G A16C A20U A21U G42A U61A A64G G71A C85U C87U C129U G136A    0.0
7) G83C A97G C108G    0.0
8) G50C A73U G80A G81U C95A G100U U151C    0.0
9) U7A C10G U55A C72U G94A U151A    0.0
10) A19U G94C U145G    1.0
11) U31A A97U    1.0
12) U6A A20G U56A G88U U102A C103G C132A U146G    0.0
13) C99A U134G    1.0
14) C5G A16G A21U C93U U101G A110C C116U G124C    0.0
15) A60G G94U    1.0
16) A49U G58C C75G C118G G124A    0.0
17) A47C C87U C105A A119C    1.0
18) G92C C95A    1.0
19) G84U U104G A115C    0.0
20) U15G U31G A40U C57A C95G C125U G140U    0.0
21) A19C G59A U144C    1.0
22) G50C G80A C85U C87U C108U    0.0
23) C5G U13A    1.0
24) U7G A60G    1.0
25) C125U G143U    0.0
26) A40G C99G    0.0
27) A3U G42U G48C C75G G86A C108A    0.0
28) C35U A37C U55A C95U    1.0
29) A47U G58C U61G G81A    0.0
30) A12U G59U G94C C114U    1.0
31) C27U C57U G94A C95A G143A    0.0
32) A110G U134G    0.0
33) A16C A89U A91U U127C    0.0
34) C8U A52U C54U G83A C118A U127G    0.0
35) U56A A113U    1.0
36) A98U A120U G143C    1.0
37) C87A C103A C114U    0.0
38) A49C U56A A64G C87U    0.0
39) G59U A64G A89G A107C    0.0
40) U13G U31C A40G G58U U78C C85G C114U G141U    0.0
41) A23U G83U C93A G126U C129U    0.0
42) C87A U101C    0.0
43) G42A U56A C95U U111G    0.0
44) C51U G62C G70A A115U C116A    0.0
45) C36A C93G C125A    0.0
